Attribution: patent US5017574A

Biological target: benzodiazepine receptors
Experiment: Affinity for benzodiazepine receptors: inhibition of specific 3H-flunitrazepam binding (Test 1)
Settings: 0.6×10^-9 mol 3H-flunitrazepam; membranes from the rear portion of the rat brain; read-out: Test 1: concentration which inhibited 50% of the specific binding of 3H-labelled flunitrazepam (IC50)
pIC50: −log10 of the molar value.
Classify by measured pIC50: TRUE if it is equal to or exceeds 7, FALSE if it is smaller.

Prompt: Reported pIC50 at or above 7? `CN1Cc2c(C3OCCO3)ncn2-c2ccccc2C1=O`
Completion: FALSE

Prompt: Reported pIC50 at or above 7? CN1Cc2c(C3OCCS3)ncn2-c2cccc(C(F)(F)F)c2C1=O (stereo not drawn)
Completion: TRUE

Prompt: Reported pIC50 at or above 7? CN1Cc2c(C3OCCS3)ncn2-c2ccccc2C1=O (stereo not drawn)
Completion: FALSE

Prompt: Reported pIC50 at or above 7? CN1Cc2c(C3OCCS3)ncn2-c2cccc(F)c2C1=O (stereo not drawn)
Completion: TRUE
